# System: 282377-053-R-J1-PDC complex spheroids, viability;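 also: spheroids exposed to compounds for 7 days before readout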
# method.notes: Anticancer human tumor 282377-053-R-J1-PDC patient-derived colon adenocarcinoma cell line growth inhibition [GQUAD]
# measurement.parameters: second compound 3.16 µM; first compound 0.316 µM; active compounds read low
Threshold 50%. viability, T/C below it: Satisfied. viability, T/C at it or above: Not satisfied.

compound	class.name
CC(C)n1c(=O)n(C)c2cnc3cc(F)c(-c4ccc(OCCCN5CCCCC5)nc4)cc3c21 + CN(C)c1ccc(Nc2c3ccc(NC(=O)CCN4CCCC4)cc3nc3cc(NC(=O)CCN4CCCC4)ccc23)cc1	Not satisfied
Nc1ccn(C2OC(CO)C(O)C2(F)F)c(=O)n1 (stereo not given) + Cc1cnc(CNC(=O)c2c(=O)c3ccc(N4CCCN(C)CC4)nc3n3c2sc2ccccc23)cn1	Satisfied
CC(=O)O[C@H]1C(=O)[C@@]2(C)[C@H]([C@H](OC(=O)c3ccccc3)[C@]3(O)C[C@H](OC(=O)[C@H](O)[C@@H](NC(=O)c4ccccc4)c4ccccc4)C(C)=C1C3(C)C)[C@]1(OC(C)=O)CO[C@@H]1C[C@@H]2O + CN(C)c1ccc(Nc2c3ccc(NC(=O)CCN4CCCC4)cc3nc3cc(NC(=O)CCN4CCCC4)ccc23)cc1	Satisfied

q: I'd appreciate it if you could check whether O=c1[nH]cc(F)c(=O)[nH]1 + Cc1[nH]c2ccc(F)cc2c1-c1nc2c3cccnc3c3ncccc3c2[nH]1 has viability, T/C smaller than 50%.
a: Not satisfied
